test: PK study in ICR mice, intravenous single administration; format: in vivo; conditions: mouse, in vivo, female, 3 mg/kg
MEASURED PROPERTY: half-life

ITEM SMILES	MEASURED PROPERTY	MEASURED VALUE
CCc1c(F)ccc2cc(O)cc(-c3ncc4c(N5CCOC[C@@](C)(O)C5)nc(OCC5(CN6CCC7(CCN(Cc8cnc(-c9cn([C@H](C(=O)N%10C[C@H](O)C[C@H]%10C(=O)N[C@@H](C)c%10ccc(-c%11scnc%11C)cc%10)C(C)C)nn9)cn8)CC7)CC6)CC5)nc4c3F)c12	half-life	13.5 h

---

assay: PK study in ICR mice, intravenous single administration; format: in vivo; details: mouse, in vivo, female, 3 mg/kg

ITEM SMILES	C0 (ng/mL)
CCc1c(F)ccc2cc(O)cc(-c3ncc4c(N5CCOC[C@@](C)(O)C5)nc(OCC5(CN6CCC7(CCN(Cc8cnc(-c9cn([C@H](C(=O)N%10C[C@H](O)C[C@H]%10C(=O)N[C@@H](C)c%10ccc(-c%11scnc%11C)cc%10)C(C)C)nn9)cn8)CC7)CC6)CC5)nc4c3F)c12	7510

---

tested on: H358; assay: Cell proliferation assay (Cell-titer Glo), H358; assay type: cell-based; details: Homo sapiens, NCI-H358, H358, KRAS G12C, 96 h
MEASURED PROPERTY: IC50 (nM)

MOLECULE	MEASURED ON	MEASURED VALUE
CCc1c(F)ccc2cc(O)cc(-c3nc4c5c(nc(OCC6(CN7CCC(Oc8cnc(-c9cn([C@H](C(=O)N%10C[C@H](O)C[C@H]%10C(=O)N[C@@H](C)c%10ccc(-c%11scnc%11C)cc%10)C(C)C)nn9)cn8)CC7)CC6)nc5c3F)N3CCCC(C)(O)C3CO4)c12 (some centres unmarked)	H358	40
CCc1c(F)ccc2cc(O)cc(-c3ncc4c(N5CCC[C@](O)(CC#N)C5)nc(OCC5(CN6CCC(Oc7cnc(-c8cn([C@H](C(=O)N9C[C@H](O)C[C@H]9C(=O)N[C@@H](C)c9ccc(-c%10scnc%10C)cc9)C(C)C)nn8)cn7)CC6)CC5)nc4c3F)c12	H358	20
CCc1c(F)ccc2cc(O)cc(-c3ncc4c(N5CCOC[C@@](C)(O)C5)nc(OCC5(CN6CCC(Oc7cnc(-c8cn([C@H](C(=O)N9C[C@H](O)C[C@H]9C(=O)N[C@@H](CN(C)C)c9ccc(-c%10scnc%10C)cc9)C(C)C)nn8)cn7)CC6)CC5)nc4c3F)c12	H358	8.4
CCc1c(F)ccc2cc(O)cc(-c3ncc4c(N5CCCC6(CCO6)C5)nc(OCC5(CN6CCN(c7ccc(-c8cn([C@H](C(=O)N9C[C@H](O)C[C@H]9C(=O)N[C@@H](C)c9ccc(-c%10scnc%10C)cc9)C(C)C)nn8)cn7)CC6)CC5)nc4c3F)c12 (some centres unmarked)	H358	56
CCc1c(F)ccc2cc(O)cc(-c3ncc4c(N5CCCOCC5)nc(OCC5(CN6CCC(Oc7cnc(-c8cn([C@H](C(=O)N9C[C@H](O)C[C@H]9C(=O)N[C@@H](C)c9ccc(-c%10scnc%10C)cc9)C(C)C)nn8)cn7)CC6)CC5)nc4c3F)c12	H358	55

---

experiment: PK study in ICR mice, intravenous single administration; format: in vivo; conditions: mouse, in vivo, female, 3 mg/kg
MEASURED PROPERTY: AUC(0-t) (ng·h/mL)

MOLECULE	MEASURED PROPERTY	MEASURED VALUE
CCc1c(F)ccc2cc(O)cc(-c3ncc4c(N5CCOC[C@@](C)(O)C5)nc(OCC5(CN6CCC7(CCN(Cc8cnc(-c9cn([C@H](C(=O)N%10C[C@H](O)C[C@H]%10C(=O)N[C@@H](C)c%10ccc(-c%11scnc%11C)cc%10)C(C)C)nn9)cn8)CC7)CC6)CC5)nc4c3F)c12 [Compound 115]	AUC(0-t)	3710

---

Assay: PK study in Beagle dogs, intravenous single administration
Assay type: in vivo
Conditions: dog, in vivo, one female and one male, 3 mg/kg
Experimental: Compound 115 was mixed with the vehicle 10% DMSO/5% Solutol/85% physiological saline, vortexed and sonicated to prepare a 1.5 mg/mL clear intravenous injection solution. Beagle dogs weighing approximately 10 kg (half male, half female) were selected, not fasted, and administered Compound 115 intravenously. […] Drug concentrations were analyzed by LC-MS/MS method, and pharmacokinetic parameters were calculated using Phoenix WinNonlin software (Pharsight, USA). […]

ITEM SMILES	C0 / µg/mL
CCc1c(F)ccc2cc(O)cc(-c3ncc4c(N5CCOC[C@@](C)(O)C5)nc(OCC5(CN6CCC7(CCN(Cc8cnc(-c9cn([C@H](C(=O)N%10C[C@H](O)C[C@H]%10C(=O)N[C@@H](C)c%10ccc(-c%11scnc%11C)cc%10)C(C)C)nn9)cn8)CC7)CC6)CC5)nc4c3F)c12	22.7

---

assay: PK study in SD rats, intravenous single administration; assay type: in vivo; conditions: rat, in vivo, male, 3 mg/kg

COMPOUND	AUC(0-t), ng·h/mL
CCc1c(F)ccc2cc(O)cc(-c3ncc4c(N5CCOC[C@@](C)(O)C5)nc(OCC5(CN6CCC7(CCN(Cc8cnc(-c9cn([C@H](C(=O)N%10C[C@H](O)C[C@H]%10C(=O)N[C@@H](C)c%10ccc(-c%11scnc%11C)cc%10)C(C)C)nn9)cn8)CC7)CC6)CC5)nc4c3F)c12 [Compound 115]	9170

---

assay: PK study in Beagle dogs, intravenous single administration; assay type: in vivo; details: dog, in vivo, one female and one male, 3 mg/kg

ITEM SMILES	AUC(0-t) (ng·h/mL)
CCc1c(F)ccc2cc(O)cc(-c3ncc4c(N5CCOC[C@@](C)(O)C5)nc(OCC5(CN6CCC7(CCN(Cc8cnc(-c9cn([C@H](C(=O)N%10C[C@H](O)C[C@H]%10C(=O)N[C@@H](C)c%10ccc(-c%11scnc%11C)cc%10)C(C)C)nn9)cn8)CC7)CC6)CC5)nc4c3F)c12	20700
